Reference source: patent US12240862B2

In this section we review reported pIC50 values for a set of compounds.
# target_or_system: human PAD4 (Homo sapiens)
# Construct: human PAD4 (NM_012387), A2P663, was PCR amplified; His-SUMO (N, cleaved yes)
# test_protocol: In vitro PAD4 BAEE biochemical assay
# conditions: human PAD4, BAEE substrate; 5 nM PAD4, 2 mM calcium chloride, 3 mM BAEE; geometric mean of multiple experiments
Friendly reminder that pIC50 comes from taking -log10 of the concentration in mol/L.

A selection of reference data follows.
compound | target_or_system | assay_value
COc1cc(C(=O)N2[C@H]3CC[C@@H]2[C@H](N)C3)cc2nc(-c3cc4ccc([C@@H](C)NC(=O)C(C)(C)C)nc4n3CC34CC(C3)C4)c(C3CC3)n12 | human PAD4 (Homo sapiens) | 6.18
CCc1ccc2cc(-c3nc4cc(C(=O)N5CCC[C@@H](N)C5)cc(OC)n4c3C3CCC3)n(CC3CC3)c2n1 | human PAD4 (Homo sapiens) | 5.67
COc1cc(C(=O)N2[C@H]3CC[C@@H]2[C@H](N)C3)cc2nc(-c3cc4ccc([C@@H](C)NC(=O)[C@H]5C[C@@](C)(O)C5)nc4n3CC3CC3)c(C)n12 | human PAD4 (Homo sapiens) | 7.54
COc1cc(C(=O)N2CCC3CCNCC32)cc2nc(-c3cc4ccc(N(C(F)F)S(C)(=O)=O)nc4n3CC3CC3)c(C)n12 (stereo not drawn) | human PAD4 (Homo sapiens) | 6.59
COc1ccc(-c2ccc3cc(-c4nc5cc(C(=O)N6[C@H]7CC[C@@H]6[C@H](N)C7)cc(OC)n5c4C)n(CC4CC4)c3n2)c(C)n1 | human PAD4 (Homo sapiens) | 6.53

Item: CCc1ccc2cc(-c3nc4cc(C(=O)N5[C@H]6CC[C@@H]5[C@H](N)C6)cc(OC)n4c3C)n(CC3CCCC3)c2n1 | pIC50: 6.18

* * *

# target_or_system: human PAD4 (Homo sapiens, UniProt Q9UM07)
# Construct: human PAD4 (NM_012387), A2P663, was PCR amplified; His-SUMO (N, cleaved yes)
# Sequence (Q9UM07 2-663): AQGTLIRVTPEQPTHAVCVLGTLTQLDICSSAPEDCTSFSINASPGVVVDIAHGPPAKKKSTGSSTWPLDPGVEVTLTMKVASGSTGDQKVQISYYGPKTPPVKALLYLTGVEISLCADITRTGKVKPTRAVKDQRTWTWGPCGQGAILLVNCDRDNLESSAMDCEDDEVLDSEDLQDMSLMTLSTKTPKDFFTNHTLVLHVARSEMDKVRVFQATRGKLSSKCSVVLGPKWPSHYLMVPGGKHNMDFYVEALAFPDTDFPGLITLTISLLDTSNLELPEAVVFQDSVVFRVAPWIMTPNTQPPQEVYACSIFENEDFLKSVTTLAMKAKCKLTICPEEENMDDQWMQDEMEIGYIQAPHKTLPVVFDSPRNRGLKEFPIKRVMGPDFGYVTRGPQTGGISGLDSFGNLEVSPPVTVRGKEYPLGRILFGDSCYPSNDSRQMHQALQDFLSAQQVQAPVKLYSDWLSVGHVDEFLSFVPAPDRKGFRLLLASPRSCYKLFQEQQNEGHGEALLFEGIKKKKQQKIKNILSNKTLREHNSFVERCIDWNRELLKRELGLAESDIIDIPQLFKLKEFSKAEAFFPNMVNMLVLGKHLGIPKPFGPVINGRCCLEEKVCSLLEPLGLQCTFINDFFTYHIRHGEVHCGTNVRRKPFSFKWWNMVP
# test_protocol: In vitro PAD4 BAEE biochemical assay
# conditions: human PAD4, BAEE substrate; 5 nM PAD4, 2 mM calcium chloride, 3 mM BAEE; geometric mean of multiple experiments
Each entry below carries its recorded IC50.
Remember to follow the number with its unit.

compound_smiles | assay_value
COc1cc(C(=O)N2CCC[C@@H](N)[C@H]2C)cc2nc(-c3cc4ccc(N(C5CC5)S(C)(=O)=O)nc4n3CC3CC3)c(C)n12 | 181 nM

Value of IC50 reported for the compound COc1cc(C(=O)NC[C@H]2CCCCN2)cc2nc(-c3cc4ccc(N(C(F)F)S(C)(=O)=O)nc4n3CC3CC3)c(C)n12 is 27200 nM

IC50 for COc1cc(C(=O)N2CCC[C@@H](N)C2)cc2nc(-c3cc4ccc([C@@H](C)NC(=O)C(C)(C)C)nc4n3CC3CC3)c(C3CC3)n12 is 139 nM

Value of IC50 reported for the compound COc1cc(C(=O)N2[C@H]3CC[C@@H]2[C@H](N)C3)cc2nc(-c3cc4ccc([C@@H](C)NC(=O)c5cnc(C6CC6)o5)nc4n3CC3CC3)c(C)n12 is 56 nM

Lab book: IC50 of CCc1ccc2cc(-c3nc4cc(C(=O)N5[C@H]6CC[C@@H]5[C@H](N)C6)cc(OC)n4c3C)n(Cc3cccnc3)c2n1 noted as 179 nM

Data point: COc1cc(C(=O)N2CCC[C@@H](N)C2)cc2nc(-c3cc4ccc(C(C)(F)F)nc4n3CC3CC3)c(C)n12 ; IC50 = 997 nM

* * *

# target_or_system: human PAD4 (Homo sapiens)
# Construct: human PAD4 (NM_012387), A2P663, was PCR amplified; His-SUMO (N, cleaved yes)
# test_protocol: In vitro PAD4 BAEE biochemical assay
# conditions: human PAD4, BAEE substrate; 5 nM PAD4, 2 mM calcium chloride, 3 mM BAEE; geometric mean of multiple experiments
assay_metric: IC50 (nM)
Give just the numeric value; nM need not be written.

molecule | unit_descriptor | IC50
COc1cc(C(=O)N2CCC[C@@H](N)C2)cc2nc(-c3cc4ccc([C@@H](C)NC(=O)[C@H]5[C@@H]6CC(F)(F)C[C@@H]65)nc4n3CC3CC3)c(C)n12 [Example 9] | nM | 28

Reported IC50 ( COc1cc(C(=O)N2[C@H]3CC[C@@H]2[C@H](N)C3)cc2nc(-c3cc4ccc([C@@H](C)NC(=O)C5(CO)CC5)nc4n3CC3CC3)c(C)n12 [Example 128] ) = 35.8

The molecule COc1cc(C(=O)N2[C@H]3CC[C@@H]2[C@H](N)C3)cc2nc(-c3cc4ccc([C@@H](C)NC(=O)C5(C)CCOCC5)nc4n3CC3CC3)c(C)n12 [Example 135] showed IC50 equal to 106

* * *

# IC50 annotations
# target_or_system: human PAD4 (Homo sapiens, UniProt Q9UM07)
# Construct: human PAD4 (NM_012387), A2P663, was PCR amplified; His-SUMO (N, cleaved yes)
# test_protocol: In vitro PAD4 BAEE biochemical assay
# conditions: human PAD4, BAEE substrate; 5 nM PAD4, 2 mM calcium chloride, 3 mM BAEE; geometric mean of multiple experiments

Some solved cases for reference:
compound | target_or_system | IC50
COc1cc(C(=O)N[C@H]2CNCC[C@@H]2C)cc2nc(-c3cc4ccc(N(C(F)F)S(C)(=O)=O)nc4n3CC3CC3)c(C)n12 [Example 282] | human PAD4 (Homo sapiens, UniProt Q9UM07) | 10400 nM
COc1cc(C(=O)N2[C@H]3CC[C@@H]2[C@H](N)C3)cc2nc(-c3cc4ccc([C@@H](C)N5CCCC5)nc4n3CC3CC3)c(C)n12 | human PAD4 (Homo sapiens, UniProt Q9UM07) | 134 nM

The reported IC50 of the compound COc1cc(C(=O)N2CCC[C@@H](N)C2)cc2nc(-c3cc4ccc([C@@H](C)NC(=O)C56CC(F)(C5)C6)nc4n3CC3CC3)c(C3CC3)n12 was 215 nM

* * *

# target_or_system: human PAD4 (Homo sapiens)
# Construct: human PAD4 (NM_012387), A2P663, was PCR amplified; His-SUMO (N, cleaved yes)
# test_protocol: In vitro PAD4 BAEE biochemical assay
# conditions: human PAD4, BAEE substrate; 5 nM PAD4, 2 mM calcium chloride, 3 mM BAEE; geometric mean of multiple experiments
# Text: The PCR product was ligated into linearized pET-SUMO vector (Invitrogen, Carlsbad, CA), which is part of the Champion™ pET SUMO Protein Expression System. […] The enzymatic activity of human PAD4 was monitored in a biochemical assay in the presence or absence of compounds using the small peptidyl arginine mimic BAEE (Na-Benzoyl-L-arginine ethyl ester hydrochloride) as substrate. […] Levels of ammonia were monitored by using an amine coupling reaction and were indicative of PAD4 enzymatic activity. […]
As shown below, each of these compounds has a reported IC50 value.
Reply with just the number (in µM).

compound_smiles | IC50 (µM)
COc1cc(C(=O)NC[C@@H]2CCCCN2)cc2nc(-c3cc4ccc(N(C(F)F)S(C)(=O)=O)nc4n3CC3CC3)c(C)n12 | 38.4
CCc1ccc2cc(-c3nc4cc(C(=O)N5[C@H]6CC[C@@H]5[C@H](N)C6)cc(OC)n4c3C)n(CCC(C)(C)C#N)c2n1 | 0.277

Switching to the query record.
For COc1cc(C(=O)N2[C@H]3CC[C@@H]2[C@H](N)C3)cc2nc(-c3cc4ccc([C@@H](C)NC(=O)C5(O)CCC5)nc4n3CC3CC3)c(C)n12 the compound record lists IC50 as 0.0435

* * *

# target_or_system: human PAD4 (Homo sapiens, UniProt Q9UM07)
# Construct: human PAD4 (NM_012387), A2P663, was PCR amplified; His-SUMO (N, cleaved yes)
# test_protocol: In vitro PAD4 BAEE biochemical assay
# conditions: human PAD4, BAEE substrate; 5 nM PAD4, 2 mM calcium chloride, 3 mM BAEE; geometric mean of multiple experiments
pIC50: −log10 of the molar value.
Classification field: TRUE = pIC50 at or over 7; FALSE = pIC50 under 7.

compound | label
COc1cc(C(=O)N2[C@H]3CC[C@@H]2[C@H](N)C3)cc2nc(-c3cc4ccc([C@@H](C)NC(=O)c5cnccn5)nc4n3CC3CC3)c(C)n12 [Example 83] | TRUE

Qu. Assess whether reported pIC50 for C[C@H]1CC[C@@H](N)CN1C(=O)c1ccn2c(C(F)F)c(-c3cc4ccc(N(C(F)F)S(C)(=O)=O)nc4n3CC3CC3)nc2c1 [Example 409] sits at 7 or higher.
Ans. FALSE

Qu. Please indicate if the recorded pIC50 for COc1cc(C(=O)N[C@H]2CNC[C@H](F)C2)cc2nc(-c3cc4ccc(N(C(F)F)S(C)(=O)=O)nc4n3CC3CC3)c(C)n12 [Example 306] meets or exceeds 7.
Ans. FALSE

Qu. Please tell me: is the compound CCC1CC[C@@H]2CCN(C(=O)c3cc(OC)n4c(C)c(-c5cc6ccc([C@@H](C)NC(=O)C78CC(F)(C7)C8)nc6n5CC5CC5)nc4c3)C[C@@H]2N1 (stereo partly drawn) [Example 12] at or over 7 in terms of pIC50?
Ans. FALSE

Qu. Could you please find out whether CCc1ccc2cc(-c3nc4cc(C(=O)N5[C@H]6CC[C@@H]5[C@H](N)C6)cc(OC)n4c3C3CC3)n(CC3CC3)c2n1 [Example 578] has pIC50 that meets 7 or exceeds it?
Ans. FALSE

Qu. Hi team, for COc1cc(C(=O)N2[C@H]3CC[C@@H]2[C@H](N)C3)cc2nc(-c3cc4ccc([C@@H](C)NC(=O)c5ccncc5F)nc4n3CC3CC3)c(C)n12 [Example 52] , is the recorded pIC50 at or above 7?
Ans. TRUE

Qu. State whether the measured pIC50 reaches 7, counting equality as reaching it, for CC(C)c1c(-c2cc3ccc(N(C(F)F)S(C)(=O)=O)nc3n2CC2CC2)nc2cc(C(=O)N3[C@@H]4CC[C@@H](N)[C@H]3CC4)ccn12 [Example 434]
Ans. FALSE
